System: Aspergillus terreus
procedure.details: Antifungal activity against Aspergillus terreus 191A6 assessed as reduction in fungal viability incubated for 48 hrs by microplate reader analysis
Format: functional
Numbered stars: 1 amine (or outer) side, 2 acyl side, 3 side chain; on linkers, the order of the positions; unused ones are H or OH. Square brackets hold non-standard residues; d marks the D form. Peptide text beside a SMILES is read from it. X1 = CC[C@@H](C)[C@@H](O[*:1])C(=O)[*:2]; NMeVal(β-OH) = CN[C@H](C(=O)O)C(C)(C)O; NMeF = CN[C@@H](Cc1ccccc1)C(=O)O; aIle = CC[C@@H](C)[C@H](N)C(=O)O; NMeV = CN[C@H](C(=O)O)C(C)C
test.readout: MFC<=99.9

>>> result("CC[C@H](C)C[C@H](C)CCCCCCCCC(=O)N[C@H]1C[C@@H](O)[C@@H](NCCN)NC(=O)[C@@H]2[C@@H](O)CCN2C(=O)[C@H]([C@H](O)CCN)NC(=O)[C@H]([C@H](O)[C@@H](O)c2ccc(O)cc2)NC(=O)[C@@H]2C[C@@H](O)CN2C(=O)[C@H]([C@@H](C)O)NC1=O")
">10 µM"
>>> result("CC[C@H](C)C[C@H](C)C[C@H](C)C[C@@H]1NC(=O)[C@H](C(C)C)N(C)C(=O)[C@@H]([C@H](C)CC)OC(=O)[C@H](C(C)(C)O)N(C)C(=O)[C@H](CC(C)C)NC(=O)[C@H](C(C)C)N(C)C(=O)[C@H]([C@H](C)CC)NC(=O)[C@@H]2CCCN2C(=O)CN(C)C1=O")
">10 µM"
>>> result("CC[C@@H](C)[C@@H]1NC(=O)[C@@H]2CCCN2C(=O)[C@H](Cc2ccccc2)N(C)C(=O)[C@H](Cc2ccccc2)NC(=O)[C@H](C(C)C)N(C)C(=O)[C@@H]([C@H](C)CC)OC(=O)[C@H](C(C)(C)O)N(C)C(=O)[C@H](CC(C)C)NC(=O)[C@H](C(C)C)N(C)C1=O [AUREOBASIDIN A] (cyclo(F[NMeF]P[aIle][NMeV]L[NMeVal(β-OH)][X1][NMeV]))")
">10 µM"

====

MIC80 values by entry
Tested on: Aspergillus niger
procedure.details: Antifungal activity against Aspergillus niger FGSC A732 assessed as reduction in fungal growth incubated for 48 hrs by microplate reader analysis
Type: functional
Numbered stars: 1 amine (or outer) side, 2 acyl side, 3 side chain; on linkers, the order of the positions; unused ones are H or OH. Square brackets hold non-standard residues; d marks the D form. Peptide text beside a SMILES is read from it. X1 = CC[C@@H](C)[C@@H](O[*:1])C(=O)[*:2]; NMeVal(β-OH) = CN[C@H](C(=O)O)C(C)(C)O; NMeF = CN[C@@H](Cc1ccccc1)C(=O)O; aIle = CC[C@@H](C)[C@H](N)C(=O)O; NMeV = CN[C@H](C(=O)O)C(C)C
test.readout: MIC80

>>> result("CC[C@@H](C)[C@@H]1NC(=O)[C@@H]2CCCN2C(=O)[C@H](Cc2ccccc2)N(C)C(=O)[C@H](Cc2ccccc2)NC(=O)[C@H](C(C)C)N(C)C(=O)[C@@H]([C@H](C)CC)OC(=O)[C@H](C(C)(C)O)N(C)C(=O)[C@H](CC(C)C)NC(=O)[C@H](C(C)C)N(C)C1=O [AUREOBASIDIN A] (cyclo(F[NMeF]P[aIle][NMeV]L[NMeVal(β-OH)][X1][NMeV]))")
"5 µM"
>>> result("C[C@@H]1[C@H](O)[C@@H](C)/C=C/C=C/C=C/C=C/C=C/C=C/C=C/[C@H](O[C@@H]2O[C@H](C)[C@@H](O)[C@H](N)[C@@H]2O)C[C@@H]2O[C@](O)(C[C@@H](O)C[C@@H](O)[C@H](O)CC[C@@H](O)C[C@@H](O)CC(=O)O[C@H]1C)C[C@H](O)[C@H]2C(=O)O [AMPHOTERICIN B]")
"0.6 µM"
>>> result("CCC(C)n1ncn(-c2ccc(N3CCN(c4ccc(OCC5COC(Cn6cncn6)(c6ccc(Cl)cc6Cl)O5)cc4)CC3)cc2)c1=O (stereo not drawn) [ITRACONAZOLE]")
"2.5 µM"
